Data provenance is patent US20240400614A1.

Target: MMP-2 (Homo sapiens, UniProt P08253)
Construct: purchased SIGMA PF023
Sequence (P08253 110-660): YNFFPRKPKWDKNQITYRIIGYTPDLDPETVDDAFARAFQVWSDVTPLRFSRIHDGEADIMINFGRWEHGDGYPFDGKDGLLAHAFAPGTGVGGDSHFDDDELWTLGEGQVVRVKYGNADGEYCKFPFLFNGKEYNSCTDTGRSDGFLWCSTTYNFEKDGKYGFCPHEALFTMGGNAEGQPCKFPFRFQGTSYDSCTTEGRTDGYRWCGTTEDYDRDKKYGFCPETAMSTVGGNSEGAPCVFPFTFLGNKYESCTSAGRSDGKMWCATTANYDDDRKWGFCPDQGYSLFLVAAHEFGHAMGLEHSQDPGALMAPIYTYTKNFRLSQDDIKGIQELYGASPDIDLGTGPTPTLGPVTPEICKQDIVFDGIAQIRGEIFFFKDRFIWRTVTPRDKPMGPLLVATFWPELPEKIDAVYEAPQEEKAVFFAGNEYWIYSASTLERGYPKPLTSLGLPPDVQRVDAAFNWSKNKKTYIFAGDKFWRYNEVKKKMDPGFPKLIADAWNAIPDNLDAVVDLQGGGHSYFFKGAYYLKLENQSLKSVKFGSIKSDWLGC
Assay: FRET peptide cleavage efficiency with MMP-2
Format: biochemical
Settings: t = 60 min; 200 uM linker, 1 ug/ml protease, 37° C., buffer C pH 7.5
Square brackets hold non-standard residues; d marks the D form. Ends that are not written are not given here. Tyr(3-NO2) = N[C@@H](Cc1ccc(O)c([N+](=O)[O-])c1)C(=O)O; Nle = CCCC[C@H](N)C(=O)O; 2Abz = Nc1ccccc1C(=O)O
Let's look at some substances and their measured % cleavage MMP-2 t = 60 min.
MEASURE_NAME: % cleavage MMP-2 t = 60 min (%)

[
  {
    "SUBSTANCE": "SSRAVFRKNLGPLGLAG ([2Abz]SSRAVFRKNLGPLGLAG[Tyr(3-NO2)]-NH2) [LNK002]",
    "VALUE_MEASURED": 99
  },
  {
    "SUBSTANCE": "PASNRRLPLGLAG ([2Abz]PASNRRLPLGLAG[Tyr(3-NO2)]-NH2) [LNK018]",
    "VALUE_MEASURED": 83
  },
  {
    "SUBSTANCE": "SGRVLRKAGPQPLVD ([2Abz]SGRVLRKAGPQPLVD[Tyr(3-NO2)]-NH2) [LNK003]",
    "VALUE_MEASURED": 38
  },
  {
    "SUBSTANCE": "SGRVLRKAGPAGLVG ([2Abz]SGRVLRKAGPAGLVG[Tyr(3-NO2)]-NH2) [LNK013]",
    "VALUE_MEASURED": 99
  },
  {
    "SUBSTANCE": "RQRRS-Nle-PLGLAG ([2Abz]RQRRS[Nle]PLGLAG[Tyr(3-NO2)]-NH2) [LNK025]",
    "VALUE_MEASURED": 97
  },
  {
    "SUBSTANCE": "SGRVLPYAMTA ([2Abz]SGRVLPYAMTA[Tyr(3-NO2)]-NH2) [LNK024]",
    "VALUE_MEASURED": 97
  },
  {
    "SUBSTANCE": "SGRPLGYFGKL ([2Abz]SGRPLGYFGKL[Tyr(3-NO2)]-NH2) [LNK056]",
    "VALUE_MEASURED": 100
  },
  {
    "SUBSTANCE": "RGRRHSSKLQ ([2Abz]RGRRHSSKLQ[Tyr(3-NO2)]-NH2) [LNK052]",
    "VALUE_MEASURED": 2
  },
  {
    "SUBSTANCE": "RRLNYSL ([2Abz]RRLNYSL[Tyr(3-NO2)]-NH2) [LNK074]",
    "VALUE_MEASURED": 5
  }
]
